tested system: T1, Ig-1 and Ig-2 domains fragment of human Tyro3 ECD, His-Strep tagged (human)
T1 construct: also called Ig1-Ig2 fragment
T1 chain: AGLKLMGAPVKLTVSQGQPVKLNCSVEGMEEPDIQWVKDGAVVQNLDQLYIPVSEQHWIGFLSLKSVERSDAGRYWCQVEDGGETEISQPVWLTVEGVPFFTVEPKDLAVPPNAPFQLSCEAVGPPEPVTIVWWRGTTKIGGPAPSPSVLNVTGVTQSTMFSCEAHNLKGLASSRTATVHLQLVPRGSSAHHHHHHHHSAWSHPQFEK
method description: sandwich ELISA, Strep-tagged fragment captured on StrepMAB plate, scFv 10 µg/mL (Table 17), anti-FLAG-HRP

- binder: "anti-Tyro3 scFv 2410 (scFv, V domains shown, Tested as a single-chain Fv made in E. coli) VH: EVQLVQSGADVKKPGASLTISCQASGYTFTDYWISWVRQKPGKGLEWMGQIVPRASRTNYGPSFQGHVTISADRSTATAYLQWRSLEASDTAMYYCVRPYFQTSGGTIPEYYQHWGPGTLVTVSS VL: SYELTQPPSVSVSPGQTARITCSGDALPKKYAYWYQQKSGQAPVLVIYEDEKRASGIPERFSGSSSGTMATLTISGAQVEDEADYYCYSQERNGNYAVFGGGTKLTVL"
  binding result: "binds"
